# test_system: Adenosine receptor A1 (Bos taurus, UniProt P28190)
# Sequence (P28190 whole entry): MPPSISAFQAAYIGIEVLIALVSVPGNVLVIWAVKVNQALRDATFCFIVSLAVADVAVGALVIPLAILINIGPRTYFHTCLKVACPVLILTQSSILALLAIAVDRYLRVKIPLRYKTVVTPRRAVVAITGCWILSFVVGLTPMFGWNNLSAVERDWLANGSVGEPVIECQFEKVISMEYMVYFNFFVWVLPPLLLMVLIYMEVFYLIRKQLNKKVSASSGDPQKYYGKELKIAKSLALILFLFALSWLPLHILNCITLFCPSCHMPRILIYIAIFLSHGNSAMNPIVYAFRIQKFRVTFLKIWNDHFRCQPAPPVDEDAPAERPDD
# Format: cell membranes
# condition_details: read-out: Ki
property_label: Ki (µM)
Give just the number in µM; leave the unit off.

Some solved cases for reference:
CCCNC(=O)OC[C@H]1O[C@@H](n2cnc3c(N[C@@H]4CCOC4)ncnc32)[C@](C)(O)[C@@H]1O
0.93
C[C@@]1(O)[C@H](O)[C@@H](COC(=O)NCc2ccccc2)O[C@H]1n1cnc2c(NC3CCCC3)ncnc21
0.538
C[C@@]1(O)[C@H](O)[C@@H](CO)O[C@H]1n1cnc2c(N[C@@H]3CCOC3)ncnc21
0.0136

q: Need Ki, item C[C@@]1(O)[C@H](O)[C@@H](COC(=S)NCc2ccccc2)O[C@H]1n1cnc2c(N[C@@H]3CCOC3)nc(Cl)nc21
a: 0.23

q: Need Ki, item CCCNC(=S)OC[C@H]1O[C@@H](n2cnc3c(NC4CCCC4)nc(Cl)nc32)[C@](C)(O)[C@@H]1O
a: 0.075

q: Need Ki, item CNC(=S)OC[C@H]1O[C@@H](n2cnc3c(N[C@@H]4CCOC4)ncnc32)[C@](C)(O)[C@@H]1O
a: 0.615

q: Need Ki, item C[C@@]1(O)[C@H](O)[C@@H](COC(=O)NCc2ccccc2)O[C@H]1n1cnc2c(NC3CCCC3)nc(Cl)nc21
a: 0.057

q: Need Ki, item CCCNC(=S)OC[C@H]1O[C@@H](n2cnc3c(N[C@@H]4CCOC4)nc(Cl)nc32)[C@](C)(O)[C@@H]1O
a: 0.313

q: Need Ki, item CNC(=O)OC[C@H]1O[C@@H](n2cnc3c(NC4CCCC4)nc(Cl)nc32)[C@](C)(O)[C@@H]1O
a: 0.156

q: Need Ki, item C[C@@]1(O)[C@H](O)[C@@H](COC(=S)NCc2ccccc2)O[C@H]1n1cnc2c(NC3CCCC3)nc(Cl)nc21
a: 0.042

q: Need Ki, item C[C@@]1(O)[C@H](O)[C@@H](COC(=O)NCc2ccccc2)O[C@H]1n1cnc2c(N[C@@H]3CCOC3)nc(Cl)nc21
a: 0.384

q: Need Ki, item C[C@@]1(O)[C@H](O)[C@@H](CO)O[C@H]1n1cnc2c(N[C@@H]3CCOC3)nc(Cl)nc21
a: 0.013
